Listed binders paired with reported pIC50
# subject.of.test: T1, neuromedin-B preferring receptor (NMB-R) on C6 rodent glioblastoma cells (rodent, UniProt P24053 1-390, limits assumed)
# T1 construct: whole, on cells; also called C6/NMB-R
# T1 sequence (looked up): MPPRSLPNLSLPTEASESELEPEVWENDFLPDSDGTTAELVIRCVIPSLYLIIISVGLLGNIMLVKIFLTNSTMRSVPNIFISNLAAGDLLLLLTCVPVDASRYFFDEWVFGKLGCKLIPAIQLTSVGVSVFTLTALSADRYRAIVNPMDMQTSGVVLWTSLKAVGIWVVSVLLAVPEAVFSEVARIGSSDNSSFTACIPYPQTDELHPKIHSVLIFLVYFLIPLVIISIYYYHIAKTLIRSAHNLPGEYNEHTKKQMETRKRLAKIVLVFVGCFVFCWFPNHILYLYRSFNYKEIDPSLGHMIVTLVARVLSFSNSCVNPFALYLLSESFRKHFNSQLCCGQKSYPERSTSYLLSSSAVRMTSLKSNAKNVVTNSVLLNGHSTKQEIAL
# procedure.text: 125I-NMB competition, C6 cells
Scale: pIC50 equals -log10([C]), with [C] in mol/L.

Q: Query: pIC50; subject: QWAVGHLM (N-term: N,N-dimethylglycine-Ser-Cys(Acm)-Gly-Lys-Glu; C-term amide) [N,N-dimethylglycine-Ser-Cys(Acm)-Gly-KE-QWAVGHLM-NH2]
A: 7.22

Q: Name the reported pIC50 value associated with the binder QWAVGHLM (N-term: N,N-dimethylglycine-Ser-Cys(Acm)-Gly-Ser-Arg; C-term amide) [N,N-dimethylglycine-Ser-Cys(Acm)-Gly-SR-QWAVGHLM-NH2]
A: 8.70

The origin of these recorded values is patent US20130136691A1.
